Test system: NCI-H522 lung
protocolDescription: NCI tumour cell line growth inhibition, 48 h; in the data active = GI50 below about 0.43 µM; inactive = the rest
Pick one and only one: class 1 (active), class 0 (inactive)

Ask: Dear all, I need the recorded test outcome for COc1cc(OC)cc(C2CC(=O)Nc3c2c(C)nn3-c2nc3ccccc3[nH]2)c1 (stereo not drawn) , thank you.
Reply: class 0

Ask: // outcome(item) with item = C=C1C(=O)O[C@H]2[C@H]1CC/C(CNC(=O)c1cc3cc(OC)ccc3[nH]1)=C\CC[C@@]1(C)O[C@@H]21
Reply: class 0

Ask: Dear all, I need the recorded test outcome for CC(C)(C#N)c1cc(Cn2cncn2)cc(C(C)(C)C#N)c1 , thank you.
Reply: class 0

Ask: Look up the recorded call for O=C(/C=C/c1ccc(F)cc1)c1ccc(Cl)cc1Cl in this test.
Reply: class 0

Ask: What call does the record list for COc1cc(C(=O)/C(C)=C/c2c[nH]c3ccccc23)cc(OC)c1OC ?
Reply: class 1

Ask: Tell me the recorded outcome of this test for O=C1Nc2ccc(C(=O)c3ccco3)cc2/C1=C/c1cc(Cl)c(O)c(Cl)c1 .
Reply: class 0

Ask: Hi team, can someone confirm the assay call for CC(C)c1ccc(C(=O)Nc2nc3ccc(O)cc3s2)cc1 ?
Reply: class 0

Ask: Would you mind telling me which call this test gave Cc1ccccc1NC(=O)N/C(N)=N/c1nc(-c2cccc([N+](=O)[O-])c2)cs1 ?
Reply: class 0

Ask: What outcome does the record of this test show for CCN(CC)CC(O)CNc1ccc(NCC2CO2)c2c1C(=O)c1ccccc1C2=O (stereo not drawn) ?
Reply: class 0

Ask: Give the logged outcome of this assay for the following molecule: O=c1c2c(nc3n1CCS3)[nH]c1ccccc12
Reply: class 0

Ask: Would you mind telling me which call this test gave C=CCC(N[C@H](CO)c1ccccc1)c1ccc2ccccc2n1 (stereo partly drawn) ?
Reply: class 0

Ask: Please share the test call associated with CC1=C2[C@@H](CC1)[C@]1(C)O[C@@](C3CCCCC3)(C[C@H]1OC(=O)CO)[C@H]2OC(=O)/C=C/c1ccccc1 .
Reply: class 0

Ask: GET /call?item= COc1ccc(CN(C)c2ccc(CO)c(Cl)c2)cc1 returns the recorded outcome of this test.
Reply: class 0

Each recorded value in this set is attributed to PubChem BioAssay (NCI).
